EXPERIMENTAL_DETAILS: qHTS for induction of synthetic lethality in tumor cells producing 2HG: qHTS for the HT-1080-NT fibrosarcoma cell line
TEST_PARAMETERS: HT-1080-NT fibrosarcoma viability, CellTiter-Glo ATP luminescence, 48 h; series mostly up to 46.1 µM
The campaign covered roughly 360,000 compounds. About 6,000 (1.7%) were called active. Inconclusive results (about 8%) are left out. Calls follow the shape of the dose curve; as a rule, active = well fitted cell-killing curve with a large enough effect; inconclusive = small, poorly fitted or top-dose-only effect, or effect the other way; inactive = flat fitted curve, though single readings scatter. The entries come from a sample that favours actives as a whole.
Outcomes you can answer with include only these: active, inactive

Past entries and their recorded results:
INPUT_SMILES	CAT
Cc1cc(C)c2c(c1)cc(C)c1nnc(SCC(=O)Nc3cc(C)on3)n12	active
Cc1ccc(S(=O)(=O)N2CC[C@H]3[C@@H](C2)C(=O)C[C@@H](c2ccccc2)N3S(=O)(=O)c2ccc(C)cc2)cc1	inactive
O=C(CC[C@H]1O[C@@H](n2ccc(=O)[nH]c2=O)[C@H](O)[C@@H]1O)N[C@H](Cc1ccccc1)C(=O)NCc1ccco1	inactive

Lab note: next compound to report on.
# input In this assay, the call recorded for CCc1nc2c(OCC(=O)C(C)(C)C)cccn2c1N(C)C(=O)c1ccccc1F was what?
# output inactive

----------
EXPERIMENTAL_DETAILS: qHTS for induction of synthetic lethality in tumor cells producing 2HG: qHTS for the HT-1080-NT fibrosarcoma cell line
TEST_PARAMETERS: HT-1080-NT fibrosarcoma viability, CellTiter-Glo ATP luminescence, 48 h; series mostly up to 46.1 µM
The campaign covered roughly 360,000 compounds. About 6,000 (1.7%) were called active. About 8% were inconclusive and are not listed. Calls come from the whole dose curve; as a rule, active = well fitted cell-killing curve with a large enough effect; inconclusive = small, poorly fitted or top-dose-only effect, or effect the other way; inactive = flat fitted curve, though single readings scatter. Shown is part of a subset that was picked to be rich in actives.
Outcomes you can answer with include only these: label 1 (active), label 0 (inactive)

MOLECULE	CAT
O=C(Nc1ccc(Br)cn1)C1CCN(S(=O)(=O)c2cccs2)CC1	label 1
CCCCC(=O)N(C)c1c(CC)nc2c(OCc3ccc(S(C)(=O)=O)cc3)cccn12	label 0
O=C1[C@H]2[C@@H](c3ccc(C(F)(F)F)cc3)N[C@]3(CCCN(Cc4ccc(Cl)cc4)C3=O)[C@H]2C(=O)N1Cc1ccccc1	label 0

# input In this assay, the call recorded for CCOC(=O)C(=Cc1ccccc1)C(=O)c1ccccc1 was what?
# output label 0

# input Same for CN1CN(C)c2ccc([N+](=O)[O-])c3cccc1c23
# output label 0

# input Same for CCCC(=O)Nc1nc2ccc(NC(=O)c3c(F)c(F)c(OC)c(F)c3F)cc2s1
# output label 1

# input Same for O=C(NCc1ccc(Cl)cc1)C1CCN(S(=O)(=O)c2cccs2)CC1
# output label 0

# input Same for COc1ccc(C=C2CCC3C(CCCC34OCCO4)C2=O)cc1 (stereo not given)
# output label 0

# input Same for Cc1ccc(OS(=O)Nc2cccc3nccnc23)cc1 (stereo not given)
# output label 1

# input Same for COCCCN1C(=O)C(CC(=O)NCc2cccs2)CC(C(=O)N2CCOCC2)=C1C (stereo not given)
# output label 0

----------
EXPERIMENTAL_DETAILS: qHTS for induction of synthetic lethality in tumor cells producing 2HG: qHTS for the HT-1080-NT fibrosarcoma cell line;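 also: NT is the 2HG producing partner of a matched IDH1 knockdown line; nearly all actives have a fitted effect of over 55% in size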
TEST_PARAMETERS: HT-1080-NT fibrosarcoma viability, CellTiter-Glo ATP luminescence, 48 h; series mostly up to 46.1 µM
The campaign covered roughly 360,000 compounds. About 6,000 (1.7%) were called active. Roughly 8% stayed inconclusive and do not appear here. The call rests on the fitted dose curve; in most records, active means well fitted cell-killing curve with a large enough effect; inconclusive means small, poorly fitted or top-dose-only effect, or effect the other way; inactive means flat fitted curve, though single readings scatter. For the sample, actives were picked, then their nearest neighbours and some compounds at random.
Outcomes you can answer with include only these: Yes (active), No (inactive)

Past entries and their recorded results:
INPUT_SMILES	CAT
Nc1[nH]c(C(=O)c2ccccc2)c(-c2ccc(Br)cc2)c1C(=O)NC1CC1	No
CSc1nc2ccc(NC(=O)c3c(F)cccc3F)cc2s1	No
CC(=O)Nc1ccc2nc(NC(=O)CS(=O)(=O)c3ccc(F)cc3)sc2c1	No
CCCC(=O)Nc1nc2ccc(NC(=O)c3cccnc3)cc2s1	Yes

Lab note: next compound to report on.
# input In this assay, the call recorded for CCOC(=O)[C@]12CCCC=C1N(Cc1ccc3c(c1)OCO3)C(=O)[C@H](CC(=O)NCc1cccs1)C2 was what?
# output No

----------
EXPERIMENTAL_DETAILS: qHTS for induction of synthetic lethality in tumor cells producing 2HG: qHTS for the HT-1080-NT fibrosarcoma cell line;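 also: NT is the 2HG producing partner of a matched IDH1 knockdown line; nearly all actives have a fitted effect of over 55% in size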
TEST_PARAMETERS: HT-1080-NT fibrosarcoma viability, CellTiter-Glo ATP luminescence, 48 h; series mostly up to 46.1 µM
The campaign covered roughly 360,000 compounds. About 6,000 (1.7%) were called active. Not shown: some 8% with an inconclusive outcome. Calls come from the whole dose curve; as a rule, active = well fitted cell-killing curve with a large enough effect; inconclusive = small, poorly fitted or top-dose-only effect, or effect the other way; inactive = flat fitted curve, though single readings scatter. The entries come from a sample that favours actives as a whole.
Outcomes you can answer with include only these: label 1 = active, label 0 = inactive

Past entries and their recorded results:
COMPOUND	CAT
CCc1ccc2nc(N(CCCN(C)C)C(=O)c3ccc4c(c3)OCCO4)sc2c1	label 1
COCCSc1nnc(NC(=O)CCS(=O)(=O)Cc2ccccc2)s1	label 0
CCCCCCCCCCOC(=O)Cn1c(COc2ccc(C)cc2)[n+](C)c2ccccc21	label 1
COc1ccc(CNC(=O)C2CCCC2)cc1	label 0
COc1ccc(-c2ccc(CN3C(C(C)C)C(=O)N(Cc4cn(CC5CCCCC5)nn4)CCS3(=O)=O)cc2)cn1 (stereo unspecified)	label 0
O=C(C(=O)N1CCN(c2ccccc2)CC1)c1ccc2c(c1)OCO2	label 0
O=C(NN=Cc1ccccc1)c1ccccc1	label 0
O=C1Nc2ccccc2NC(c2ccc3c(c2)OCO3)=C1N(Cc1ccc(F)cc1)C(=O)c1ccco1	label 0
c1cc(-c2ccc3[nH]ccc3c2)n2ccnc2c1	label 0
CCNC(=O)C1(C)CCCN1C(=O)c1ccc(N(C)C)cc1 (stereo unspecified)	label 0

# input In this assay, the call recorded for Cc1ccc(-c2c(N)nc3ncccn23)cc1 was what?
# output label 0

# input Same for O=c1[nH][nH]c2c1[C@H](c1ccc(Cl)cc1)O[C@H](CCc1ccccc1)C2
# output label 0

----------
EXPERIMENTAL_DETAILS: qHTS for induction of synthetic lethality in tumor cells producing 2HG: qHTS for the HT-1080-NT fibrosarcoma cell line;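 also: NT is the 2HG producing partner of a matched IDH1 knockdown line; nearly all actives have a fitted effect of over 55% in size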
TEST_PARAMETERS: HT-1080-NT fibrosarcoma viability, CellTiter-Glo ATP luminescence, 48 h; series mostly up to 46.1 µM
The whole screen tested about 360,000 compounds, of which about 6,000 (1.7%) were called active. Roughly 8% stayed inconclusive and do not appear here. Calls come from the whole dose curve; as a rule, active = well fitted cell-killing curve with a large enough effect; inconclusive = small, poorly fitted or top-dose-only effect, or effect the other way; inactive = flat fitted curve, though single readings scatter. The sample as a whole holds a higher share of actives than the screen did.
Outcomes you can answer with include only these: yes = active, no = inactive

Past entries and their recorded results:
COMPOUND	CAT
CC(C)C[C@@H]1COc2cc(N3CCC[C@@H]3CO)ccc2S(=O)(=O)N1	no
O=C(c1ccc(N2CCCC2=O)cc1)N1CCN(c2ccc(C(F)(F)F)cc2[N+](=O)[O-])CC1	no
COC(=O)[C@]12CCCCC=C1N(Cc1ccccc1)C(=O)[C@H](CC(=O)NCc1ccc(C)o1)C2	no
Cc1cc(C)c(NC(=O)c2oc3ccccc3c2COc2ccccc2)c(C)c1	no
CS(=O)(=O)c1cccc(-c2ccc3nncn3c2)c1	no
Cc1ccc(-c2nc3ccccn3c2Nc2ccc(F)cc2)o1	no

# input In this assay, the call recorded for Cc1cc(C)c(NC(=O)C[N+](C)(C)CC(O)COc2cccc3ccccc23)c(C)c1 (stereo not given) was what?
# output yes

# input Same for Cc1ccc(S(=O)(=O)N[C@H]2CCC[C@@H]2O)cc1
# output no

# input Same for CC(=O)c1ccc(OCC(=O)N(C)C2CCS(=O)(=O)C2)cc1 (stereo not given)
# output no

# input Same for COc1ccc(C(=O)N[C@H](C(=O)NCc2ccccc2)C(C)C)cc1
# output no

----------
EXPERIMENTAL_DETAILS: qHTS for induction of synthetic lethality in tumor cells producing 2HG: qHTS for the HT-1080-NT fibrosarcoma cell line;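 also: NT is the 2HG producing partner of a matched IDH1 knockdown line; nearly all actives have a fitted effect of over 55% in size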
TEST_PARAMETERS: HT-1080-NT fibrosarcoma viability, CellTiter-Glo ATP luminescence, 48 h; series mostly up to 46.1 µM
Hit rate of the full screen: of about 360,000 compounds, about 6,000 (1.7%) were called active. Not shown: some 8% with an inconclusive outcome. The call rests on the fitted dose curve; in most records, active means well fitted cell-killing curve with a large enough effect; inconclusive means small, poorly fitted or top-dose-only effect, or effect the other way; inactive means flat fitted curve, though single readings scatter. For the sample, actives were picked, then their nearest neighbours and some compounds at random.
Outcomes you can answer with include only these: active, inactive

Past entries and their recorded results:
INPUT_SMILES	CAT
O=C(c1cccs1)N1C[C@H](n2cc(C3CC3)nn2)[C@@H](O)C[C@@H]1c1ccccc1	inactive
CC1(C)CC(N2CCN(C(c3ccccc3)c3ccccc3)CC2)=CC(=[N+]2CCCCC2)C1	active

# input In this assay, the call recorded for COc1ccc(Cl)cc1NC(=O)CN(C)C(=O)c1cn(-c2ccccc2)nc1-c1cccs1 was what?
# output inactive

# input Same for CCc1nc2ccc(C(=O)N(C)CCN(C)C)cn2c1N(CC)CCOC
# output inactive

# input Same for c1ccc(C(c2ccccc2)N2CCN(Cc3nnnn3C3CCCCC3)CC2)cc1
# output inactive
